Collected pKi values appear next to each entry.
target: human D2s dopamine receptors (Homo sapiens)
Sequence (P14416 1-414 isoform P14416-2): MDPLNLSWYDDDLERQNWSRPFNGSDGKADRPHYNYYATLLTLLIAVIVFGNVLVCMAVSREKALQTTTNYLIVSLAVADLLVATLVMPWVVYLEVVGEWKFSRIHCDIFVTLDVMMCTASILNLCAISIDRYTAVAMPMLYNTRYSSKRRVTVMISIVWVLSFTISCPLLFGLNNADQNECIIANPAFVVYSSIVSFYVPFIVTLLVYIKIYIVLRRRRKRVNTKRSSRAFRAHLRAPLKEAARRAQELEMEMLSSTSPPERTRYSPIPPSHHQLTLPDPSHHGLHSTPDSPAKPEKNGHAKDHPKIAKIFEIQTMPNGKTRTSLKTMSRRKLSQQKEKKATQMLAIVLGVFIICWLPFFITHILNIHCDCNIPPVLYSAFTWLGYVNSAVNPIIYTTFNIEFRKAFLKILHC
pKi: −log10 of the molar value.
assay endpoint: pKi

> print(dat)
                                    compound  assay.endpoint  assay.result
 1  O=C(C[C@H]1CN(C2=Nc3cc(Cl)ccc3Oc3ccccc32)CCN1)O[C@@H]1CN2CCC1CC2             pKi  5.01 to 5.60
 2  CCOC(=O)CC1CN(C2=Nc3cc(Cl)ccc3Oc3ccccc32)CCN1 (stereo not shown)             pKi  5.01 to 5.60
 3  COC(=O)c1ccc(OC[C@H]2CN(C3=Nc4ccccc4Oc4ccc(Cl)cc43)CCN2)cc1             pKi  5.61 to 6.20
 4  C[C@H](CC(C)(C)O)OC(=O)C[C@H]1CN(C2=Nc3cc(Cl)ccc3Oc3ccccc32)CCN1             pKi  5.61 to 6.20
 5  CCOC(=O)C[C@H]1CN(C2=Nc3cc(Cl)ccc3Oc3ccccc32)CCN1             pKi  5.61 to 6.20
 6  COC(=O)CC1CN(C2=Nc3cc(Cl)ccc3Oc3ccccc32)CCN1 (stereo not shown)             pKi  5.01 to 5.60
 7  COC(C)(C)CCOC(=O)C[C@H]1CN(C2=Nc3cc(Cl)ccc3Oc3ccccc32)CCN1             pKi  5.61 to 6.20
 8  CC(C)(C)COC(=O)C[C@H]1CN(C2=Nc3cc(Cl)ccc3Oc3ccccc32)CCN1             pKi  5.01 to 5.60
 9  COC(=O)C[C@@H]1CN(C2=Nc3cc(Cl)ccc3Oc3ccccc32)CCN1             pKi  5.01 to 5.60
10  CCOC(=O)CC1CN(C2=Nc3cc(Cl)ccc3Oc3ccccc32)CCN1C (stereo not shown)             pKi  5.01 to 5.60

---

Collected pKi values appear next to each entry.
Target: human 5HT2C receptors (Homo sapiens, UniProt P28335)
Sequence (P28335 33-458): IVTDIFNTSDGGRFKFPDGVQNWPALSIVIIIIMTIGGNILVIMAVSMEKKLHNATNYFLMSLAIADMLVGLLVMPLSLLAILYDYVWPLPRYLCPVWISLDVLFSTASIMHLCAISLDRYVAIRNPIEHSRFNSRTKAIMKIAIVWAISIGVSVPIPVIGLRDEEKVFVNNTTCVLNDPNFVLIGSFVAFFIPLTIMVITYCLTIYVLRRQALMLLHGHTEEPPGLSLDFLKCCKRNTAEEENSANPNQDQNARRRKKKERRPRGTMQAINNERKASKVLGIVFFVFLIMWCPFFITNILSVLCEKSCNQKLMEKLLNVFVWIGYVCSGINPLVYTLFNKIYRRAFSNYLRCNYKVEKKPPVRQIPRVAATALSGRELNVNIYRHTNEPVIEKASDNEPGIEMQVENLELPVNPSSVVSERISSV
pKi: −log10 of the molar value.
assay endpoint: pKi

> print(dat)
                                    compound  assay.endpoint  assay.result
 1  CC(C)(CO)NC(=O)C[C@H]1CN(C2=Nc3cc(Cl)ccc3Oc3ccccc32)CCN1             pKi  7.01 to 8.00
 2  CCCN(CCO)C(=O)C[C@H]1CN(C2=Nc3cc(Cl)ccc3Oc3ccccc32)CCN1             pKi  7.01 to 8.00
 3  C[C@@H](O)CNC(=O)C[C@H]1CN(C2=Nc3cc(Cl)ccc3Oc3ccccc32)CCN1             pKi  7.01 to 8.00
 4  CCOC(=O)CC1CN(C2=Nc3ccc(Cl)cc3Oc3ccccc32)CCN1 (stereo not shown)             pKi  7.01 to 8.00
 5  COCCCNC(=O)C[C@H]1CN(C2=Nc3cc(Cl)ccc3Oc3ccccc32)CCN1             pKi  7.01 to 8.00
 6  O=C(C[C@H]1CN(C2=Nc3cc(Cl)ccc3Oc3ccccc32)CCN1)NCC(F)F             pKi  7.01 to 8.00
 7  O=C(O)CC1CN(C2=Nc3cc(Cl)ccc3Oc3ccccc32)CCN1 (stereo not shown)             pKi  6.01 to 7.00
 8  O=C(O)C[C@@H]1CN(C2=Nc3cc(Cl)ccc3Oc3ccccc32)CCN1             pKi  6.01 to 7.00
 9  O=C(O)C[C@H]1CN(C2=Nc3cc(Cl)ccc3Oc3ccccc32)CCN1             pKi  6.01 to 7.00
10  CCOC(=O)C[C@H]1CN(C2=Nc3cc(Cl)ccc3Oc3ccccc32)CCN1             pKi  7.01 to 8.00

---

Protein target, amino acids: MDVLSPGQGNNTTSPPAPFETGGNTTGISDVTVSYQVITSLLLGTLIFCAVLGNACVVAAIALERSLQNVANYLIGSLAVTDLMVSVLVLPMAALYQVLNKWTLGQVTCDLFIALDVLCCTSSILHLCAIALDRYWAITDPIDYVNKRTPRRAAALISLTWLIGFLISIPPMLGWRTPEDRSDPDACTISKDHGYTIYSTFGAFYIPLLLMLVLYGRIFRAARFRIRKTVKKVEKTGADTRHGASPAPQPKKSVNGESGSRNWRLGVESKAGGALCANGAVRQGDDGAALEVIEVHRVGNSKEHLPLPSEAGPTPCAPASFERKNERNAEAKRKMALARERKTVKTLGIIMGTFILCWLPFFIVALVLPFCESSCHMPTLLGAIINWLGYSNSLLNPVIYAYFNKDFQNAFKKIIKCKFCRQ
assay endpoint: Ki

> print(dat)
                                   compound  assay.endpoint     assay.result
1  O=C(O)CC1CN(C2=Nc3cc(Cl)ccc3Oc3ccccc32)CCN1 (centres unmarked)              Ki  1000 to 9770 nM
2  CC[C@H](C)OC(=O)C[C@H]1CN(C2=Nc3cc(Cl)ccc3Oc3ccccc32)CCN1              Ki    10 to 97.7 nM
3  CC(C)(O)CCOC(=O)C[C@H]1CN(C2=Nc3cc(Cl)ccc3Oc3ccccc32)CCN1              Ki    10 to 97.7 nM
4  O=C(C[C@H]1CN(C2=Nc3cc(Cl)ccc3Oc3ccccc32)CCN1)NC[C@@H]1CCCO1              Ki    10 to 97.7 nM
5  O=C(C[C@H]1CN(C2=Nc3cc(Cl)ccc3Oc3ccccc32)CCN1)O[C@H]1CCOC1              Ki    10 to 97.7 nM

---

target: 5-HT2A receptor (Rattus norvegicus, UniProt P14842); construct: Eight strips of tissue (0.5 cm long) were cut. and were mounted in 10 ml organ baths; tissue Charles River Laboratories; host or cells: rat aorta strips, endothelium removed; assay: cell-based; conditions: read-out: 5HT2A (pKb) (converted)
Sequence (P14842 whole entry): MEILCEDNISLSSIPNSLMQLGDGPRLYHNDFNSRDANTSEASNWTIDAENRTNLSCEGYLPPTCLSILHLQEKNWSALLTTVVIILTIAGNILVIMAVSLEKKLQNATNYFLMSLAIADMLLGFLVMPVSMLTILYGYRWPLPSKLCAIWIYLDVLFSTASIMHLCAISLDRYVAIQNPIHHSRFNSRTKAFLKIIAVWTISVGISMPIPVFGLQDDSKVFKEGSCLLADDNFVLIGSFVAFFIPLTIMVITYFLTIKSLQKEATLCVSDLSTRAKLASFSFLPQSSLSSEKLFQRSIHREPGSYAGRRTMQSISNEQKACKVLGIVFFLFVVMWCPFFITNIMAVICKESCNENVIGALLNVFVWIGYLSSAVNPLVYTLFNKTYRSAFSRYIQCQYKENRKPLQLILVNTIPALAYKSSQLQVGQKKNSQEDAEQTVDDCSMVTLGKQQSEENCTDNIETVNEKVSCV
assay endpoint: Kb

> print(dat)
                                   compound                               system.name     assay.result
1  CN(CCO)C(=O)C[C@H]1CN(C2=Nc3cc(Cl)ccc3Oc3ccccc32)CCN1 [FO]  5-HT2A receptor (Rattus norvegicus, UniProt P14842)    10 to 30.9 nM
2  CC(C)CNC(=O)CC1CN(C2=Nc3cc(Cl)ccc3Oc3ccccc32)CCN1 (centres unmarked) [B]  5-HT2A receptor (Rattus norvegicus, UniProt P14842)  31.6 to 97.7 nM
3  CCOC(=O)C[C@@H]1CN(C2=Nc3cc(Cl)ccc3Oc3ccccc32)CCN1 [O]  5-HT2A receptor (Rattus norvegicus, UniProt P14842)  31.6 to 97.7 nM
4  COC(C)(C)CCOC(=O)C[C@H]1CN(C2=Nc3cc(Cl)ccc3Oc3ccccc32)CCN1 [EB]  5-HT2A receptor (Rattus norvegicus, UniProt P14842)    10 to 30.9 nM
5  COC(=O)c1ccc(OC[C@H]2CN(C3=Nc4ccccc4Oc4ccc(Cl)cc43)CCN2)cc1 [D]  5-HT2A receptor (Rattus norvegicus, UniProt P14842)  31.6 to 97.7 nM

---

Molecular target: human 5HT2C receptors (Homo sapiens, UniProt P28335)
Sequence (P28335 33-458): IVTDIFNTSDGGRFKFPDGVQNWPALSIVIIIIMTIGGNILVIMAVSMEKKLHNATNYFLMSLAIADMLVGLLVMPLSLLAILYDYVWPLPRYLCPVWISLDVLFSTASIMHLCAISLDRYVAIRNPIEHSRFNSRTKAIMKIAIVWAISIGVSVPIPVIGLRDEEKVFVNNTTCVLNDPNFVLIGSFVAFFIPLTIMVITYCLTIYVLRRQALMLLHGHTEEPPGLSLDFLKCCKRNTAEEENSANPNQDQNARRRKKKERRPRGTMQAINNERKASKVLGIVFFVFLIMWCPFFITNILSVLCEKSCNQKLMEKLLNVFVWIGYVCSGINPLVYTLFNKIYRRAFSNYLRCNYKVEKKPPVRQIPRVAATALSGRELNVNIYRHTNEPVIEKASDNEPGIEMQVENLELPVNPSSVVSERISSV
assay endpoint: Ki

> print(dat)
                                   molecule  assay.endpoint   assay.result
1  O=C(C[C@H]1CN(C2=Nc3cc(Cl)ccc3Oc3ccccc32)CCN1)N1CCOCC1 [GG]              Ki  10 to 97.7 nM
2  O=C(C[C@H]1CN(C2=Nc3cc(Cl)ccc3Oc3ccccc32)CCN1)O[C@@H]1CN2CCC1CC2 [DU]              Ki  100 to 977 nM
3  COc1ccc(NC(=O)C[C@H]2CN(C3=Nc4cc(Cl)ccc4Oc4ccccc43)CCN2)cn1 [FP]              Ki  10 to 97.7 nM
4  O=C(C[C@H]1CN(C2=Nc3cc(Cl)ccc3Oc3ccccc32)CCN1)N1CCC[C@H]1C(F)(F)F [GH]              Ki  100 to 977 nM
5  CC(C)(O)CCOC(=O)C[C@H]1CN(C2=Nc3cc(Cl)ccc3Oc3ccccc32)CCN1 [EC]              Ki  10 to 97.7 nM
6  COC(=O)C[C@H]1CN(C2=Nc3cc(Cl)ccc3Oc3ccccc32)CCN1 [Compound N]              Ki  10 to 97.7 nM
7  C[C@H](O)C[C@H](C)OC(=O)C[C@H]1CN(C2=Nc3cc(Cl)ccc3Oc3ccccc32)CCN1 [EO]              Ki  10 to 97.7 nM
